As shown below, each of these compounds has a reported pIC50 value.
# testSummary: Antioxidant activity assessed as inhibition of AAPH-induced linoleic acid peroxidation by UV spectrophotometric analysis
# Type: functional
Please report pIC50 as the negative decimal logarithm of the molar concentration, giving only the number.

Please review the following examples before continuing.
### Prompt Request the reported pIC50 associated with N/C(=N\OS(=O)(=O)c1ccc([N+](=O)[O-])cc1)c1cccnc1
### Response 4.07

### Prompt Same again, this time with N/C(=N\OS(=O)(=O)c1ccc([N+](=O)[O-])cc1)c1ccc([N+](=O)[O-])cc1
### Response 4.18

### Prompt Also Cc1ccc(S(=O)(=O)O/N=C(\N)c2ccccn2)cc1 , if possible.
### Response 4.10

### Prompt Queued: Cc1c(C)c2c(c(C)c1O)CCC(C)(C(=O)O)O2 (stereo unspecified)
### Response 4.26

Continuing:
### Prompt Entry CCCCCCCCCCCCCCCCS(=O)(=O)O/N=C(\N)c1cccnc1 : reported pIC50 = ?
### Response 4.15

### Prompt Item: N/C(=N\OS(=O)(=O)c1ccc([N+](=O)[O-])cc1)c1ccccn1
### Response 4.14
